Test system: HEK-293T
test-details: Multiplex assay against HEK293T
Format: toxicity, cell-based
reported-conditions: human, 24 h, 1 µM, compound concentration 1 uM, replicate 2
Sorting guide: entries reporting Population Hoechst High Intensity Objects (%) beneath 7% go in the label 1 pile, the rest go in the label 0 pile.

Consider the following illustrative entries.
CN[C@@H](C)C(=O)N[C@H](C(=O)N1CCC[C@H]1C(=O)Nc1snnc1-c1ccccc1)C1CCCCC1 [GDC-0152] ... label 1
Cc1cccc(NC(=O)CN2CCC(c3ccccn3)CC2)c1.Cl.Cl ... label 1

Problem: For the compound Cl.NCCc1ccc(O)c(O)c1 [DOPAMINE HYDROCHLORIDE] , is Population Hoechst High Intensity Objects (%) under 7%?
label 1

Problem: For the compound CC(C)COc1ccc(CNC(=O)N(Cc2ccc(F)cc2)C2CCN(C)CC2)cc1 [PIMAVANSERIN] , is Population Hoechst High Intensity Objects (%) under 7%?
label 0

Problem: For the compound NCCc1cn(S(=O)(=O)c2c(Cl)nc3sccn23)c2ccccc12.O=C(O)C(=O)O , is Population Hoechst High Intensity Objects (%) under 7%?
label 1

Problem: For the compound COc1ccccc1N1CCN(C[C@@H](C(=O)NC(C)(C)C)c2ccccc2)CC1.Cl.Cl , is Population Hoechst High Intensity Objects (%) under 7%?
label 1
